# credit: patent US11154544B2

- ASSAYED_SYSTEM: human Nav1.8 channels (Homo sapiens (Human), UniProt Q9Y5Y9)
- Sequence (Q9Y5Y9 whole entry): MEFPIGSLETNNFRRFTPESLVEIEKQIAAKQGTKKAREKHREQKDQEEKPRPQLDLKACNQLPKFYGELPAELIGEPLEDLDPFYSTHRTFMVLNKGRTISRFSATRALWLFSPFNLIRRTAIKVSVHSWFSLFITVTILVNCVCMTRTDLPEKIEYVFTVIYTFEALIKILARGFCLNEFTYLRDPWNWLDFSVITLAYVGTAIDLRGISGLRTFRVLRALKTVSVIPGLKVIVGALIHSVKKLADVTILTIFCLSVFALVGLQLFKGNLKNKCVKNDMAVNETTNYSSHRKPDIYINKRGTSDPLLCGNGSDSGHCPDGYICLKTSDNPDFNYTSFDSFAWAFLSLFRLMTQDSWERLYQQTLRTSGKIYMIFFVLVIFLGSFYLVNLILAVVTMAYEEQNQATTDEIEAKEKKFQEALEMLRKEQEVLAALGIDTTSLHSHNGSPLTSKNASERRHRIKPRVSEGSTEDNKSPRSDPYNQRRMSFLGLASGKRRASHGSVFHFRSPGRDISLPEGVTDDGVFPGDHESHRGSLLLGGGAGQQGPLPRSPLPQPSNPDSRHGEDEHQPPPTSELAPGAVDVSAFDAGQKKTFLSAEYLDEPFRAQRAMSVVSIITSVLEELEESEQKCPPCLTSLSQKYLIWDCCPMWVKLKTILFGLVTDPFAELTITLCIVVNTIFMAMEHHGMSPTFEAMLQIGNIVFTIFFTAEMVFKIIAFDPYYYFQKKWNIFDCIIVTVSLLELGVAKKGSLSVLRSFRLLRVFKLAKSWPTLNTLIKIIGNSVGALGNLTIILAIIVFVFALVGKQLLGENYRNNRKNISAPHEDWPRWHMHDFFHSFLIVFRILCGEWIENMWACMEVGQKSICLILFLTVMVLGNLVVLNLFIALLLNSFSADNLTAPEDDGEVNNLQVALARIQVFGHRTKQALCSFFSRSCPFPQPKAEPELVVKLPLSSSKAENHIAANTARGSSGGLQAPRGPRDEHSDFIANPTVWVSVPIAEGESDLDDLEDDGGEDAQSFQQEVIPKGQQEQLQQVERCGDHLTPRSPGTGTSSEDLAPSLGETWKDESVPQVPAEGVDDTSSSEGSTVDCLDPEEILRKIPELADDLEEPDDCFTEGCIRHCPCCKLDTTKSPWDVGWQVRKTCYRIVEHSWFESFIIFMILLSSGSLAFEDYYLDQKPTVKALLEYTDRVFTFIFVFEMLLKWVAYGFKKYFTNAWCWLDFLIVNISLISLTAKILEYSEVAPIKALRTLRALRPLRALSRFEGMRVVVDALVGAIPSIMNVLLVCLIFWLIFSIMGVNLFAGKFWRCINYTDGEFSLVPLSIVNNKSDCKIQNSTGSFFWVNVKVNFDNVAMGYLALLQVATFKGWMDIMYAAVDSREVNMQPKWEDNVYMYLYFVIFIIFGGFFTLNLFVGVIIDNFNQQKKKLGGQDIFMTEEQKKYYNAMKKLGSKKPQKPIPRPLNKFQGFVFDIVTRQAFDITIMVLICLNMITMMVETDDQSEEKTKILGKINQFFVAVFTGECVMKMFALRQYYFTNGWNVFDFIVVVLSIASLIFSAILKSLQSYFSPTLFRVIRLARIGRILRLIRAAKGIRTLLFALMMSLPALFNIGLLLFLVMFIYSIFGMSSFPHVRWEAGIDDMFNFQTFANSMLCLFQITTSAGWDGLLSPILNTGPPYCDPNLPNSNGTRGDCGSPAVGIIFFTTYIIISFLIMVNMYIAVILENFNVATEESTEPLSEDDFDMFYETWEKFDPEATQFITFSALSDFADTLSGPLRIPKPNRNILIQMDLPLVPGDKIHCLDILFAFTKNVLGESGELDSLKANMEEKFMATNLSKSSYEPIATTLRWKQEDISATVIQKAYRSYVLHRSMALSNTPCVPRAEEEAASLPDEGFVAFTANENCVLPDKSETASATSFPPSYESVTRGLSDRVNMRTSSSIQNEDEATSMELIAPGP
- PROTOCOL_DETAILS: FRET assay (FDSS)
- REPORTED_CONDITIONS: FRET, HEK293 cells expressing human Nav1.8; read-out: IC50 against Nav1.8
PROPERTY_LABEL: pIC50
Reminder that pIC50 is minus the log10 of a molar concentration.

Q: Please provide the recorded pIC50 for CC(CNC(=O)c1ccnc(NC(=O)C2CC2)c1)Oc1ccc(C(F)(F)F)cc1 (stereo not shown) [Example 1] , tested on human Nav1.8 channels (Homo sapiens (Human), UniProt Q9Y5Y9).
Ans: 6.19
